Measured values drawn from patent US8987233B2 for this set.

Target: Btk (Homo sapiens)
Test: TR-FRET kinase assay, Btk
Format: biochemical
Set-up: His6 (N); purchased Upstate Biochem
Settings: ATP at Km; read-out: IC50 Btk
Metric: pIC50
On this scale, pIC50 is minus log10 of a concentration expressed in M (mol/L).

Annotate the compound CC1=CC(C)=[N+]2C1=Cc1ccc(CCC(=O)NCCN3CCN(C/C=C/C(=O)N4CCC[C@@H](n5nc(-c6ccc(Oc7ccccc7)cc6)c6c(N)ncnc65)C4)CC3)n1[B-]2(F)F [Compound 3] with its measured pIC50. 7.05

----------
Target: Btk (Homo sapiens, UniProt Q06187)
Sequence (Q06187 whole entry): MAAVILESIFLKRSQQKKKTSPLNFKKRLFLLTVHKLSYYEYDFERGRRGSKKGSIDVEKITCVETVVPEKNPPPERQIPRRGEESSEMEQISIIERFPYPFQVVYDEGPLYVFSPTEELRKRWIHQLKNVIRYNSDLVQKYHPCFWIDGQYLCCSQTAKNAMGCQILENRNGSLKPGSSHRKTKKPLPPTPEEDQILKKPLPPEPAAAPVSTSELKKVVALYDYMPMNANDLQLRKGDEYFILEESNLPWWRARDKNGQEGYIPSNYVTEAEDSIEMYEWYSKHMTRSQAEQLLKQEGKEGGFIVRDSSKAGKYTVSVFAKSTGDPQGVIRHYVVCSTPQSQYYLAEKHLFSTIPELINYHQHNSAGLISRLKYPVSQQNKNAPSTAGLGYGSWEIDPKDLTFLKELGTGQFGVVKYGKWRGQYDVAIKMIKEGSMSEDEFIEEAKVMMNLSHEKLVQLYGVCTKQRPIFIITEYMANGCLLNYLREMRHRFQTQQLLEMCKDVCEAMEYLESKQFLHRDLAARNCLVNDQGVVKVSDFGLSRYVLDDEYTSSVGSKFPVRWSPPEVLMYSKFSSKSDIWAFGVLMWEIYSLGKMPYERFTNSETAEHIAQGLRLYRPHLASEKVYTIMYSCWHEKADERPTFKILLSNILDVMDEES
Assay: Inhibition of PLCγ2 phosphorylation at Tyr 1217 in 293H cells (ELISA)
Assay type: cell-based
Details: Tyr 1217, ELISA, read-out: IC50 for probe inhibition of PLCγ2 phosphorylation
Metric: IC50
Please format your answer as a value with the unit trailing.

// output IC50; input CC1=CC(C)=[N+]2C1=Cc1ccc(CCC(=O)NCCN3CCN(C/C=C/C(=O)N4CCC[C@@H](n5nc(-c6ccc(Oc7ccccc7)cc6)c6c(N)ncnc65)C4)CC3)n1[B-]2(F)F ; system Btk (Homo sapiens, UniProt Q06187) 300 nM
